These entries and their values trace back to patent US7462615B2.

Protein target, amino acids: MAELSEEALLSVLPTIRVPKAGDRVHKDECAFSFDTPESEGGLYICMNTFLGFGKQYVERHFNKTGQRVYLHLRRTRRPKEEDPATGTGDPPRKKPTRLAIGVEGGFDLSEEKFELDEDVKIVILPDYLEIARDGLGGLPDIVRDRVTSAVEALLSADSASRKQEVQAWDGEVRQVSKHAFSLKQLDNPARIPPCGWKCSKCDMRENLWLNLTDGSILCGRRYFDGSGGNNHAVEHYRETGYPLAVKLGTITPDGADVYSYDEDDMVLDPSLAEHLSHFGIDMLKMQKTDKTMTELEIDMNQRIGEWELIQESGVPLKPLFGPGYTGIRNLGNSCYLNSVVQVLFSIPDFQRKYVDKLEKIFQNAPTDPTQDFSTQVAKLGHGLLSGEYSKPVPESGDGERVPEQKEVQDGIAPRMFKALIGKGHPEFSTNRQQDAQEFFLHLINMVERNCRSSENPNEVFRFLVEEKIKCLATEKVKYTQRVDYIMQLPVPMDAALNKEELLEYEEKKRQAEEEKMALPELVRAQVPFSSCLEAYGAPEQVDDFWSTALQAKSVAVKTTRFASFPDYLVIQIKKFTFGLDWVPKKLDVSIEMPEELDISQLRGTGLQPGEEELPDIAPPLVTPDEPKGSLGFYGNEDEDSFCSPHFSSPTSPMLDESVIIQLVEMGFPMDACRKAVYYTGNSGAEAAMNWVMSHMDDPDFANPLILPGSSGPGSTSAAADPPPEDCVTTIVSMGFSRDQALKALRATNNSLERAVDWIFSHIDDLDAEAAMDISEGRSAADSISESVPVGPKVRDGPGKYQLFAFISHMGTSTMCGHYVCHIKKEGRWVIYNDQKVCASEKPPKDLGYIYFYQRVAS
Measured IC50 accompanies every entry in the list below.
Please reply with the bare figure in µM and do not write the unit itself.

Quick one: IC50 of Cn1nc2nc3c(nc2n1)-c1ccccc1C3=O ?
23

New cases:
Quick one: IC50 of COCc1nnc2nc3c(nn12)-c1ccccc1C3=O ?
0.487

Quick one: IC50 of CCc1nnc2nc3c(nn12)C(=O)c1ccccc1-3 ?
3.23

Quick one: IC50 of Cc1nnc2nc3c(nn12)-c1ccc(Cl)cc1C3=O ?
0.26

Quick one: IC50 of Nc1nnc2nc3c(nn12)C(=O)c1ccccc1-3 ?
2.8

* * *

The following are reported pIC50 results, target or system UniProt:Q93009.
Sequence (Q93009 whole entry): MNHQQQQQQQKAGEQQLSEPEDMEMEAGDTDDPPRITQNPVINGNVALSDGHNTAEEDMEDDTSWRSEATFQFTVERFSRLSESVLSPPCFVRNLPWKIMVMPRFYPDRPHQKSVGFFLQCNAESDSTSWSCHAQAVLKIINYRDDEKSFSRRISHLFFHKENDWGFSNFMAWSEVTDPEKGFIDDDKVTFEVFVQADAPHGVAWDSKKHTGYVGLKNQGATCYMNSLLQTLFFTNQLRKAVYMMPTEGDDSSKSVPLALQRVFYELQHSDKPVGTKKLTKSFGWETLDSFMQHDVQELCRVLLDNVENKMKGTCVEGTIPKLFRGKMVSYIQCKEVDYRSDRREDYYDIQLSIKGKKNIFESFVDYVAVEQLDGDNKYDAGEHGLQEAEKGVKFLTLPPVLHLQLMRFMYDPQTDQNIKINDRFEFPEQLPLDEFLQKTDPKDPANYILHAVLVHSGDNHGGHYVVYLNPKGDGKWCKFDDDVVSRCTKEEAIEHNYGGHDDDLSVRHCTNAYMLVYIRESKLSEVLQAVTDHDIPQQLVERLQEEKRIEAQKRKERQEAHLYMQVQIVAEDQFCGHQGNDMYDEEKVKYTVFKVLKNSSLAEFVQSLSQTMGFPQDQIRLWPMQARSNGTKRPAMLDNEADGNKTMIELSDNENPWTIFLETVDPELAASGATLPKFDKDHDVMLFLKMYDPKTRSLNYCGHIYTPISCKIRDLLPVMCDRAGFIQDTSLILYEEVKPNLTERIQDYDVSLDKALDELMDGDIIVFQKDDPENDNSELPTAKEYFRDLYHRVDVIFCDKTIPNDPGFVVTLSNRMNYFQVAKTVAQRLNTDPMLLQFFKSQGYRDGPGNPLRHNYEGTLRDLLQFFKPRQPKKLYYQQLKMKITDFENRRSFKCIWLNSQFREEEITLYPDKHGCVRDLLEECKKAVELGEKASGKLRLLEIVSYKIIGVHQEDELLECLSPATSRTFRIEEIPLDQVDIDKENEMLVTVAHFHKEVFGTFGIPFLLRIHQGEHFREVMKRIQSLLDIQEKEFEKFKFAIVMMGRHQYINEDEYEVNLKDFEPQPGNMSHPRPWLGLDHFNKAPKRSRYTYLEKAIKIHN
# pIC50 = -log10(concentration in molar units)

Look over these answered cases.
# value lookup — system UniProt:Q93009, readout pIC50, item Cc1nnc2nc3c(nn12)-c1ccc(Cl)cc1C3=O
6.28

# value lookup — system UniProt:Q93009, readout pIC50, item CCCc1nnc2nc3c(nn12)-c1ccccc1C3=O
6.18

# value lookup — system UniProt:Q93009, readout pIC50, item Nc1nnc2nc3c(nn12)C(=O)c1ccccc1-3
4.82

# value lookup — system UniProt:Q93009, readout pIC50, item CCc1nnc2nc3c(nn12)C(=O)c1ccccc1-3
4.78

# value lookup — system UniProt:Q93009, readout pIC50, item O=C1c2ccccc2-c2nn3c(CO)nnc3nc21
5.79

# value lookup — system UniProt:Q93009, readout pIC50, item CCCCc1nnc2nc3c(nn12)-c1ccccc1C3=O
6.22

New cases:
# value lookup — system UniProt:Q93009, readout pIC50, item CC(C)Cc1nnc2nc3c(nn12)-c1ccccc1C3=O
6.10

# value lookup — system UniProt:Q93009, readout pIC50, item O=C1c2ccccc2-c2nc3nnc(CO)n3nc21
5.01

# value lookup — system UniProt:Q93009, readout pIC50, item CCc1nnc2nc3c(nn12)-c1ccccc1C3=O
6.65

* * *

The following are reported pIC50 results, target or system Caspase 3 (Homo sapiens, UniProt P42574).
# pIC50 = -log10(concentration in molar units)

# value lookup — system Caspase 3 (Homo sapiens, UniProt P42574), readout pIC50, item COCc1nnc2nc3c(nn12)C(=O)c1ccccc1-3
6.03

New cases:
# value lookup — system Caspase 3 (Homo sapiens, UniProt P42574), readout pIC50, item O=C1c2ccccc2-c2nn3c(C4CC4)nnc3nc21
6.73

# value lookup — system Caspase 3 (Homo sapiens, UniProt P42574), readout pIC50, item O=C1c2ccccc2-c2nn3c(CO)nnc3nc21
5.99

# value lookup — system Caspase 3 (Homo sapiens, UniProt P42574), readout pIC50, item O=C1c2ccccc2-c2nc3nnc(C4CC4)n3nc21
5.72

# value lookup — system Caspase 3 (Homo sapiens, UniProt P42574), readout pIC50, item O=C1c2ccccc2-c2nc3nnc(Cc4ccccc4)n3nc21
6.22

# value lookup — system Caspase 3 (Homo sapiens, UniProt P42574), readout pIC50, item Cc1nnc2nc3c(nn12)C(=O)c1ccccc1-3
5.39

* * *

Measured pIC50 accompanies every entry in the list below.
- Tested target: UniProt:P07858
# pIC50 = -log10(concentration in molar units)

Quick one: pIC50 of Cc1nnc2nc3c(nn12)-c1ccc(Cl)cc1C3=O [Example 3/B] ?
6.83

Quick one: pIC50 of O=C1c2ccccc2-c2nn3c(C4CC4)nnc3nc21 [Example 1j/B] ?
6.74

Quick one: pIC50 of CCCCc1nnc2nc3c(nn12)C(=O)c1ccccc1-3 [Example 1f/A] ?
5.19

Quick one: pIC50 of CCc1nnc2nc3c(nn12)-c1ccccc1C3=O [Example 1d/B] ?
6.82

Quick one: pIC50 of CCCCc1nnc2nc3c(nn12)-c1ccccc1C3=O [Example 1f/B] ?
6.63

* * *

- Tested target: Uch-L3 (Homo sapiens, UniProt P15374)
- Sequence (P15374 whole entry, species assumed): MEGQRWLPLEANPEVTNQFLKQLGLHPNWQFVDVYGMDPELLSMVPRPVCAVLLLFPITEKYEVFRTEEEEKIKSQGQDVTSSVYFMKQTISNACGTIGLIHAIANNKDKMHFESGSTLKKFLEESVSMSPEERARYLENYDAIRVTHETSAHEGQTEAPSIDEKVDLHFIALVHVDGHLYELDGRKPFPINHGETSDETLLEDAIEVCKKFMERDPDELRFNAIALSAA
Measured quantity: pIC50
# pIC50 = -log10(concentration in molar units)

# value lookup — system Uch-L3 (Homo sapiens, UniProt P15374), readout pIC50, item Cc1nnc2nc3c(nn12)-c1ccccc1C3=O
6.84

# value lookup — system Uch-L3 (Homo sapiens, UniProt P15374), readout pIC50, item O=C1c2ccccc2-c2nn3c(Cc4ccccc4)nnc3nc21
6.79

# value lookup — system Uch-L3 (Homo sapiens, UniProt P15374), readout pIC50, item CCCCc1nnc2nc3c(nn12)-c1ccccc1C3=O
7.04

# value lookup — system Uch-L3 (Homo sapiens, UniProt P15374), readout pIC50, item CCCc1nnc2nc3c(nn12)C(=O)c1ccccc1-3
5.90

# value lookup — system Uch-L3 (Homo sapiens, UniProt P15374), readout pIC50, item Nc1nnc2nc3c(nn12)C(=O)c1ccccc1-3
6.07

New cases:
# value lookup — system Uch-L3 (Homo sapiens, UniProt P15374), readout pIC50, item Cc1nnc2nc3c(nn12)-c1ccc(Cl)cc1C3=O
7.15

# value lookup — system Uch-L3 (Homo sapiens, UniProt P15374), readout pIC50, item COCc1nnc2nc3c(nn12)-c1ccccc1C3=O
6.69

# value lookup — system Uch-L3 (Homo sapiens, UniProt P15374), readout pIC50, item Nc1nnc2nc3c(nn12)-c1ccccc1C3=O
6.88

# value lookup — system Uch-L3 (Homo sapiens, UniProt P15374), readout pIC50, item CCc1nnc2nc3c(nn12)-c1ccccc1C3=O
7.02

# value lookup — system Uch-L3 (Homo sapiens, UniProt P15374), readout pIC50, item O=C1c2ccccc2-c2nc3nnc(C4CC4)n3nc21
5.72

# value lookup — system Uch-L3 (Homo sapiens, UniProt P15374), readout pIC50, item O=C1c2ccccc2-c2nn3c(CO)nnc3nc21
6.80

# value lookup — system Uch-L3 (Homo sapiens, UniProt P15374), readout pIC50, item CC(C)Cc1nnc2nc3c(nn12)-c1ccccc1C3=O
6.74

* * *

- Tested target: MBP-SENP1 (Homo sapiens)
- Construct: made in house; host or cells: E. coli BL21
- Sequence (Q9P0U3 whole entry): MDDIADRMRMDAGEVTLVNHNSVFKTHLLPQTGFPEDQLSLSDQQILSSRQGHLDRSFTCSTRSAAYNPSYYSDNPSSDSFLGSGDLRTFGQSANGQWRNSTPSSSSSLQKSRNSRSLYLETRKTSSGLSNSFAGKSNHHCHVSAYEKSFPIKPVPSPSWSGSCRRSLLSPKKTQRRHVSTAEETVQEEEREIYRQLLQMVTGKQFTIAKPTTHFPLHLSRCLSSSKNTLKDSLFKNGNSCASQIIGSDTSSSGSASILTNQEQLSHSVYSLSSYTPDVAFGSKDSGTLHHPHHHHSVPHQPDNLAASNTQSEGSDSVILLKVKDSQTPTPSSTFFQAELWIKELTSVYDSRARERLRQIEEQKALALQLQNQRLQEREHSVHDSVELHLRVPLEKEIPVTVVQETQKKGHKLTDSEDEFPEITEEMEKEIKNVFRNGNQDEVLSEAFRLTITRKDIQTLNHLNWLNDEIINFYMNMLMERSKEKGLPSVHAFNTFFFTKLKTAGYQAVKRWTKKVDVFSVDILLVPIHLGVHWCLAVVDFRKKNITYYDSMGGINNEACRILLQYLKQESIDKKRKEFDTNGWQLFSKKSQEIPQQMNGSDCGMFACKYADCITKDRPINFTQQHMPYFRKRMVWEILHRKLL
- Measurement description: SENP1 Activity Assay
- Type: biochemical
- Condition set: 200 nM SUMO-AMC; 1.8 nM enzyme; pre-incubated 30 minutes at 25° C., 60 minutes at 37° C.; sigmoidal fit; read-out: SENP1 (Inhibition of cysteine protease activities)
Mark true (1) only for IC50 values smaller than 1000 nM; exact matches and larger values are false (0).

Completed entries (count: 3):
Is 1000 nM strictly greater than the compound's reported IC50? compound: CC(C)Cc1nnc2nc3c(nn12)C(=O)c1ccccc1-3
false (0)

Is 1000 nM strictly greater than the compound's reported IC50? compound: Cc1nnc2nc3c(nn12)-c1ccc(Cl)cc1C3=O
true (1)

Is 1000 nM strictly greater than the compound's reported IC50? compound: CCCc1nnc2nc3c(nn12)C(=O)c1ccccc1-3
false (0)

New cases:
Is 1000 nM strictly greater than the compound's reported IC50? compound: O=C1c2ccccc2-c2nn3c(Cc4ccccc4)nnc3nc21
false (0)

Is 1000 nM strictly greater than the compound's reported IC50? compound: COCc1nnc2nc3c(nn12)C(=O)c1ccccc1-3
false (0)

Is 1000 nM strictly greater than the compound's reported IC50? compound: CCc1nnc2nc3c(nn12)C(=O)c1ccccc1-3
false (0)

Is 1000 nM strictly greater than the compound's reported IC50? compound: CCCc1nnc2nc3c(nn12)-c1ccccc1C3=O
true (1)

Is 1000 nM strictly greater than the compound's reported IC50? compound: O=C1c2ccccc2-c2nn3c(C4CC4)nnc3nc21
true (1)
